Test system: A549-TUBA1B-RELA
PROTOCOL DESCRIPTION: phenotypically active (imaging signature differs from DMSO and reproducible) at any of 0.3-9 uM (binary (1 = active, 0 = inactive)); higher = active
RECORDED CONDITIONS: treatment time: 24 h
Structures can show the parent of a compound that is named as a salt.
Log the outcome using a class from active, inactive

Worked examples, 5 molecules total:
MOLECULE	TEST SYSTEM	LABEL VALUE
CC(C)(C)NCC(O)c1ccc(O)c(CO)c1 (centres undefined)	A549-TUBA1B-RELA	inactive
O=C(O)c1cc(/N=N/c2ccc(O)c(C(=O)O)c2)ccc1O	A549-TUBA1B-RELA	inactive
CCCCCCCCCCNCCSSCc1ccc(Cl)cc1	A549-TUBA1B-RELA	active
CC(C)C1=CC2=CCC3[C@](C)(CCC[C@]3(C)C(=O)O)C2CC1 (some centres undefined)	A549-TUBA1B-RELA	inactive
COC(=O)[C@H]1[C@H]2C[C@H]3c4[nH]c5ccccc5c4CCN3C[C@H]2CC[C@@H]1O [Rauwolscine hydrochloride]	A549-TUBA1B-RELA	inactive

IN: Which result was noted for this molecule in the test: COc1ccc(C[C@H](N)C(=O)N[C@H]2[C@@H](O)[C@H](n3cnc4c(N(C)C)ncnc43)O[C@@H]2CO)cc1 [Puromycin dihydrochloride]
OUT: active

IN: Which result was noted for this molecule in the test: Cc1c[nH]c2nccc(Oc3c(F)cc(Nc4cc(Cl)nc(N)n4)cc3F)c12
OUT: active

IN: Which result was noted for this molecule in the test: Cn1cc(C2=C(c3ccc(Cl)cc3Cl)C(=O)NC2=O)c2ccccc21
OUT: active

IN: Which result was noted for this molecule in the test: Cc1ccc(C(=O)N(CCCN)[C@@H](c2nc3cc(Cl)ccc3c(=O)n2Cc2ccccc2)C(C)C)cc1
OUT: active

---

System: HepG2-ACTB-RAB5A
PROTOCOL DESCRIPTION: phenotypically active (imaging signature differs from DMSO and reproducible) at any of 0.3-9 uM (binary (1 = active, 0 = inactive)); higher = active
RECORDED CONDITIONS: treatment time: 24 h
Counter-ions that a name gives are not always drawn.
Log the outcome using a class from active, inactive

COMPOUND	LABEL VALUE
C[C@]12CCC(=O)C=C1CC[C@@H]1[C@@H]2[C@@H](O)C[C@@]2(C)[C@H]1CC[C@]2(O)C(=O)CO [hydrocortisone]	inactive

IN: Which result was noted for this compound in the test: Cc1[nH]c(=O)c(C#N)cc1-c1ccncc1
OUT: inactive

IN: Which result was noted for this compound in the test: c1ccc(CN(CC2=NCCN2)c2ccccc2)cc1
OUT: inactive

IN: Which result was noted for this compound in the test: Cc1cc(O)cc2c1C(=O)Oc1cc3c(c(O)c1O2)C(=O)OC3
OUT: inactive

IN: Which result was noted for this compound in the test: COc1ccc(C2=N[C@H](c3ccc(Cl)cc3)[C@H](c3ccc(Cl)cc3)N2C(=O)N2CCNC(=O)C2)c(OC(C)C)c1
OUT: inactive

IN: Which result was noted for this compound in the test: CC(C)NCC(O)COc1ccc(CC(N)=O)cc1 (stereo not given)
OUT: inactive

IN: Which result was noted for this compound in the test: NS(=O)(=O)c1cc2c(cc1C(F)(F)F)NC(Cc1ccccc1)NS2(=O)=O (stereo not given) [bendroflumethiazide]
OUT: inactive

IN: Which result was noted for this compound in the test: COc1cc2c(cc1OC)C(=O)C(CC1CCN(Cc3ccccc3)CC1)C2 (stereo not given)
OUT: inactive

IN: Which result was noted for this compound in the test: CN(C)c1nc(N(C)C)nc(N(C)C)n1
OUT: inactive

IN: Which result was noted for this compound in the test: Nn1nnc2ccccc21
OUT: inactive

IN: Which result was noted for this compound in the test: Cc1ccc(NC(=O)c2cccc(N(C)C)c2)cc1NC(=O)c1ccc(O)cc1
OUT: inactive

IN: Which result was noted for this compound in the test: CC[C@H](CO)Nc1nc(NCc2ccccc2)c2ncn(C(C)C)c2n1
OUT: active

IN: Which result was noted for this compound in the test: CCCCN1C[C@H](O)[C@@H](O)[C@H](O)[C@H]1CO [Miglustat hydrochloride]
OUT: inactive

IN: Which result was noted for this compound in the test: CN(C)CCOC(=O)C(c1ccccc1)C1(O)CCCC1 (stereo not given) [cyclopentolate]
OUT: inactive

IN: Which result was noted for this compound in the test: O=C1N(c2ccccc2)c2ccccc2C1(Cc1ccncc1)Cc1ccncc1
OUT: inactive
